Below: a set of entries, each annotated with reported pEC50.
System: zfTac3ra
MEASUREMENT NOTES: Receptor transactivation assay, CRE-Luc reporter (PKA activation), COS-7 cells expressing zfTac3ra
Type: cell-based, zebrafish
ASSAY SETUP: Table 6 (native peptides and analogues); PKA activation; mean ± SEM; read-out: EC50 using CRE-Luc, zfTac3ra
pEC50: −log10 of the molar value. *1 amine or outer side, *2 acyl side, *3 side chain or, on linkers, in order; H or OH if unused. Where a SMILES comes first, the peptide text is derived from it. [ ]: non-standard residue; d: D form. Suc = O=C(CCC(=O)[*:2])[*:1]; NMeV = CN[C@H](C(=O)O)C(C)C
OBSERVATION TYPE: pEC50

COMPOUND | OBSERVATION TYPE | READOUT VALUE
CC[C@H](C)[C@H](NC(=O)[C@H](CC(=O)O)NC(=O)CCC(=O)O)C(=O)N[C@@H](Cc1ccccc1)C(=O)N(C)[C@H](C(=O)NCC(=O)N[C@@H](CC(C)C)C(=O)N[C@@H](CCSC)C(N)=O)C(C)C [zfNKBa-analog] (Suc-DIF[NMeV]GLM-NH2) | pEC50 | 8.16
CSCC[C@H](NC(=O)[C@H](CC(C)C)NC(=O)CNC(=O)[C@H](C(C)C)N(C)C(=O)[C@H](Cc1ccccc1)NC(=O)[C@H](CO)NC(=O)[C@H](CC(=O)O)NC(=O)CCC(=O)O)C(N)=O | pEC50 | 8.04
CSCC[C@H](NC(=O)[C@H](CC(C)C)NC(=O)CNC(=O)[C@@H](NC(=O)[C@H](Cc1ccccc1)NC(=O)[C@H](Cc1ccccc1)NC(=O)[C@H](CC(=O)O)NC(=O)[C@H](Cc1c[nH]cn1)NC(=O)[C@H](CCSC)NC(=O)[C@@H](N)CC(=O)O)C(C)C)C(N)=O [huNKB, reference compound] | pEC50 | 7.89
